Each recorded value in this set is attributed to the supplement of paper PMC3334620.

molecular target: Ylr278c (UniProt Q05854); test: PBM E-score (8-mer binding enrichment) (E-score (-0.5 to 0.5)); higher = stronger / more preferred TF binding; settings: protein concentration: 200 nM; construct: GST-DNA-binding domain
Sequence (Q05854 whole entry, the tested form may be a part): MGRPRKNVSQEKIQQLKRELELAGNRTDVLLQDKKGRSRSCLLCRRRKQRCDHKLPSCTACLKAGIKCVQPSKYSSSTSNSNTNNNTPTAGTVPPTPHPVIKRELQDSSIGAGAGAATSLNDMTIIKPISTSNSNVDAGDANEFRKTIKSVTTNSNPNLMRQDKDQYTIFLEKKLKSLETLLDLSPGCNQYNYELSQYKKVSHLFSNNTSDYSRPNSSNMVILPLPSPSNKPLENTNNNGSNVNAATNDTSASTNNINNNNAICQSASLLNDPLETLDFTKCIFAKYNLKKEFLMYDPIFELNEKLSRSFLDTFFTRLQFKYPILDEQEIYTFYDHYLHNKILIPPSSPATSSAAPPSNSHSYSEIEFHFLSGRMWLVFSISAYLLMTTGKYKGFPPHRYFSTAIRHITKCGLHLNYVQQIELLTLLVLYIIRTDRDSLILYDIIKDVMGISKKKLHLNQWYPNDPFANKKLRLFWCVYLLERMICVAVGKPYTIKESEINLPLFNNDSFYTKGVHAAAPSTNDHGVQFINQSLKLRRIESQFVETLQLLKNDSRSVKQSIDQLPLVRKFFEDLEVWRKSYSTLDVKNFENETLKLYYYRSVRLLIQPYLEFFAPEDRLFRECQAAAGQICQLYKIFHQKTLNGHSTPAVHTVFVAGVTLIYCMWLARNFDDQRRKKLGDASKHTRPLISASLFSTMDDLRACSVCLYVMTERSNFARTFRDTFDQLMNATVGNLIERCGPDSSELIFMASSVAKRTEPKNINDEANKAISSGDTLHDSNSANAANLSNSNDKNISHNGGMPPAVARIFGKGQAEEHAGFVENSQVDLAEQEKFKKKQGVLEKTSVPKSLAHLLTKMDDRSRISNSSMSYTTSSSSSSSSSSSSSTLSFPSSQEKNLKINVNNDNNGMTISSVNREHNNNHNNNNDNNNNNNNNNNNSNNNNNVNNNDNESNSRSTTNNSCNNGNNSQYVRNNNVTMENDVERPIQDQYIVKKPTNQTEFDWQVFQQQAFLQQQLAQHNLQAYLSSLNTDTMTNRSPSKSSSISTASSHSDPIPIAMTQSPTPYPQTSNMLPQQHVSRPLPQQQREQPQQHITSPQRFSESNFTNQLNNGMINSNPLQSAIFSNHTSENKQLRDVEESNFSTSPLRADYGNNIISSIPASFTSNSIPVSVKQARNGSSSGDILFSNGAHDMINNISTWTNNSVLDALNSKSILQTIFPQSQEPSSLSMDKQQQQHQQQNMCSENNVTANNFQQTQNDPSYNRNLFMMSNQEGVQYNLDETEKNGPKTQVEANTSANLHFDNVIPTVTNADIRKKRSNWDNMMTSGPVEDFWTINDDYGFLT
In all, about 33,000 sequences were measured (“E-score (-0.5 to 0.5)”: median about -0.054, highest 2% from about 0.39 on). The list comes from a sample in which the highest values are over-represented; it also holds close analogues and randomly drawn sequences.
Parameter: PBM E-score
The response must contain the number and no unit.

Sequence Input	PBM E-score
CCGCCCGG	0.402

Measured PBM E-score of `GCATCGGC` : 0.308

// PBM E-score lookup, sequence = `AATGGGTG` , result: -0.0286

Short answer for `CCGCCCGC` : PBM E-score was 0.349

The sequence listed as `CCATCGGA` shows PBM E-score equal to 0.415

Memo: `AGGCATTA` , reported PBM E-score: -0.134

Input `AAGCCCGT` . Output PBM E-score: 0.0339

Reported PBM E-score ( `AGCCTACA` ) = -0.0936

Please fill in: PBM E-score reported for `GGGCATTA` = -0.0729

Quick note, PBM E-score for `ACATCGGA` landed at 0.377
